Kindly supply the reported Kp uu values for the records listed here.
method_description: Unbound tissue partition coefficient, ratio of drug level in heart to plasma in Wistar Han rat at 1 to 2 mg/kg, iv infused for 10 to 20 hrs by LC-MS/MS analysis
condition: heart/plasma
When you answer, write just the number.

Retrieve Kp uu measured for CN(C)C(=O)C(CCN1CCC(O)(c2ccc(Cl)cc2)CC1)(c1ccccc1)c1ccccc1 [LOPERAMIDE] and print it.
0.79

Retrieve Kp uu measured for O=C(NC1CCCC1)C1CCN(c2nc3cc(Cl)ccc3o2)CC1 and print it.
2.2

Retrieve Kp uu measured for N#Cc1ccc(N2N=C(N3CCC(C(=O)N4CCC(O)CC4)CC3)C[C@H]2C2CCCC2)cc1Cl and print it.
0.68

Retrieve Kp uu measured for O=C(NC(c1ccccc1)c1ccccc1)C1CC1 and print it.
4.7

Retrieve Kp uu measured for COc1ccc(-c2cc3c(S(=O)(=O)O)c[nH]c3cc2Cl)cc1 and print it.
2.9

Retrieve Kp uu measured for CO[C@@H]1C[C@H](C(=O)Nc2ccc(-n3cc(Cl)ccc3=O)cc2F)N(C(=O)Nc2ccc(Cl)cc2)C1 and print it.
11

Retrieve Kp uu measured for C[C@H](CN1CCOCC1)n1/c(=N\C(N)=O)[nH]c2cc(/C=C3\c4ccccc4COc4cc(F)ccc43)ccc21 and print it.
0.68

Retrieve Kp uu measured for CN(C)C(=O)c1cc(CC(=O)O)ccc1NC(=O)c1ccccc1-c1ccc(C(F)(F)F)cc1 and print it.
0.77

Retrieve Kp uu measured for CCCn1cnc(C[C@H](CCCN)C(=O)O)c1 and print it.
0.39

Retrieve Kp uu measured for COCCCN1C[C@H](C)N(C(=O)N2Cc3c(NC(=O)c4ccccn4)n[nH]c3C2(C)C)C[C@H]1C and print it.
2.2

Retrieve Kp uu measured for CC(C)C[C@H](Nc1ccc(C(=O)NCCC(=O)O)cn1)c1ccc(-c2ccc(C(F)(F)F)cn2)cc1 and print it.
0.57

Retrieve Kp uu measured for Cn1nc(C(=O)NCCN2CCOCC2)cc1-c1cc2ccccc2[nH]1 and print it.
1.3

Retrieve Kp uu measured for Cc1c(C(=O)O)cnn1-c1nc(-c2cccc(C(F)(F)F)c2)cs1 and print it.
1.4

Retrieve Kp uu measured for COc1ccc(-c2cc3c(C(=O)O)n[nH]c3cc2Cl)cc1 and print it.
1.8

Retrieve Kp uu measured for COc1cc2c(OC[C@H]3NC(=O)[C@@H]4C[C@]34C)nccc2cc1C(N)=O and print it.
1.2

Retrieve Kp uu measured for O=C(NC1CC1)c1nc2cccnn2c1-c1ccc2ncnn2c1 and print it.
4

Retrieve Kp uu measured for Cc1ccc(NC(=O)N2CCN(Cc3sc4ccccc4c3C)CC2)nc1 and print it.
1.9

Retrieve Kp uu measured for Nc1noc2ccc(-c3cc(Cl)ccc3Oc3cc(F)c(S(=O)(=O)Nc4cscn4)cc3F)cc12 and print it.
0.9

Retrieve Kp uu measured for C[C@H](c1nc2cnc(N3CCC[C@@H](C(=O)N4CCCC4)C3)nc2[nH]1)n1cc(Cl)cn1 and print it.
1.5

====

Kindly supply the reported Kp uu values for the records listed here.
method_description: Unbound tissue partition coefficient, ratio of drug level in heart to plasma in Wistar Han rat at 1 to 2 mg/kg, iv infused for 10 to 20 hrs by LC-MS/MS analysis
condition: heart/plasma
When you answer, write just the number.

Retrieve Kp uu measured for Cc1ccc(CC(C)(C)NC[C@@H](O)CO[C@H](C)c2ccccc2-c2ccc(C(=O)O)c(C)c2)cc1F and print it.
1.8

Retrieve Kp uu measured for CC(C)n1ncc2c1C(=O)CC1(CCN(C(=O)c3ccc4[nH]nc(C(N)=O)c4c3)CC1)C2 and print it.
1.1

Retrieve Kp uu measured for CS(=O)(=O)c1cccc(C(=O)O)c1 and print it.
0.39

Retrieve Kp uu measured for CCCC(Oc1ccc(-n2cc3ccccc3n2)cc1)c1ccc(C(=O)NCCC(=O)O)cc1 (centres undefined) and print it.
1.8

Retrieve Kp uu measured for O=C(O)[C@@H]1CCN(C(=O)n2cnc(-c3ccc(-c4cnc(N5CCOCC5)nc4)cc3)n2)[C@@H](c2ccccc2)C1 and print it.
4.2

Retrieve Kp uu measured for COc1ccc(Cc2cc([C@@H]3OC4(COC4)[C@@H](O)[C@H](O)[C@H]3O)ccc2C)cc1 and print it.
1.2

Retrieve Kp uu measured for O=C(O)c1nc2cc(Cl)c(Cl)cc2nc1O and print it.
1.8

Retrieve Kp uu measured for Cn1cnc(-c2ccc(O[C@H]3CCN(C(=O)Cc4ccc(OC(F)(F)F)cc4)C[C@@H]3F)c(C(N)=O)c2)c1 and print it.
0.8

Retrieve Kp uu measured for CN(C)C[C@@H](OC(=O)N1Cc2c(NC(=O)C3(C(F)(F)F)CC3)n[nH]c2C1(C)C)c1ccccc1 and print it.
1.8

====

method_description: Fraction unbound in Wistar Han rat skeletal muscle at 2 uM incubated for 6 hrs by equilibrium dialysis method
Decide by fraction unbound at 6 h, 2 µM: equal to or exceeding 0.01 means MET, less means NOT MET.

Quick check, fraction unbound at 6 h, 2 µM >= 0.01? CCCC(Oc1ccc(-n2cc3ccccc3n2)cc1)c1ccc(C(=O)NCCC(=O)O)cc1 (stereo not drawn)
NOT MET

Quick check, fraction unbound at 6 h, 2 µM >= 0.01? Nc1noc2ccc(-c3cc(Cl)ccc3Oc3cc(F)c(S(=O)(=O)Nc4cscn4)cc3F)cc12
NOT MET

Quick check, fraction unbound at 6 h, 2 µM >= 0.01? CC1(OC(=O)N2CCC(n3ncc(COc4ccc(C(N)=O)cc4F)c3C#N)CC2)CC1
MET

Quick check, fraction unbound at 6 h, 2 µM >= 0.01? Cc1ccc(NC(=O)N2CCN(Cc3sc4ccccc4c3C)CC2)nc1
NOT MET

Quick check, fraction unbound at 6 h, 2 µM >= 0.01? CC1(C)CN(CCC#N)C(=O)[C@@H]1Oc1ccc(C#N)c(C(F)(F)F)c1
MET

Quick check, fraction unbound at 6 h, 2 µM >= 0.01? CN(C)C(=O)C(CCN1CCC(O)(c2ccc(Cl)cc2)CC1)(c1ccccc1)c1ccccc1 [LOPERAMIDE]
NOT MET

Quick check, fraction unbound at 6 h, 2 µM >= 0.01? N#Cc1ccc(N2N=C(N3CCC(C(=O)N4CCC(O)CC4)CC3)C[C@H]2C2CCCC2)cc1Cl
NOT MET

Quick check, fraction unbound at 6 h, 2 µM >= 0.01? C[C@H]1COCCN1c1nc(-c2cnc(N)nc2)c2c(n1)N([C@@]1(C)CCN(C(=O)C(C)(C)N)C1)CC2
MET

====

method_description: Drug concentration in total white adipose tissue in Wistar Han rat at 1 to 2 mg/kg, iv infused for 10 to 20 hrs by LC-MS/MS analysis
condition: in vivo
attribute_measured: Ct (ng/mL)
Give the quantity in ng/mL, number only.

Retrieve Ct measured for Nc1noc2ccc(-c3cc(Cl)ccc3Oc3cc(F)c(S(=O)(=O)Nc4cscn4)cc3F)cc12 and print it.
11

Retrieve Ct measured for CN(C)C(=O)C(CCN1CCC(O)(c2ccc(Cl)cc2)CC1)(c1ccccc1)c1ccccc1 [LOPERAMIDE] and print it.
130

Retrieve Ct measured for CO[C@@H]1C[C@H](C(=O)Nc2ccc(-n3cc(Cl)ccc3=O)cc2F)N(C(=O)Nc2ccc(Cl)cc2)C1 and print it.
300

Retrieve Ct measured for CN1CC[C@H](c2c(O)cc(O)c3c(=O)cc(-c4ccccc4Cl)oc23)[C@H](O)C1 and print it.
5.6

Retrieve Ct measured for O=C(O)c1c[nH]c2cc(Cl)c(-c3ccc(CC(=O)N4CCOCC4)cc3)cc12 and print it.
2

Retrieve Ct measured for Cn1cnc(-c2ccc(O[C@H]3CCN(C(=O)Cc4ccc(OC(F)(F)F)cc4)C[C@@H]3F)c(C(N)=O)c2)c1 and print it.
6

Retrieve Ct measured for C[C@H](c1nc2cnc(N3CCC[C@@H](C(=O)N4CCCC4)C3)nc2[nH]1)n1cc(Cl)cn1 and print it.
39

Retrieve Ct measured for COc1cc2c(OC[C@H]3NC(=O)[C@@H]4C[C@]34C)nccc2cc1C(N)=O and print it.
16

====

method_description: Unbound tissue partition coefficient, ratio of drug level in heart to plasma in Wistar Han rat at 1 to 2 mg/kg, iv infused for 10 to 20 hrs by LC-MS/MS analysis
condition: heart/plasma
Kindly supply the reported Kp uu values for the records listed here.
When you answer, write just the number.

Retrieve Kp uu measured for Cc1nc2cc(-c3cc(F)cc(C#N)c3)ccc2s1 and print it.
3.3

Retrieve Kp uu measured for O=C(c1cccc(N2CCNCC2)n1)N1CCC(c2ccccc2F)CC1 and print it.
5.3

Retrieve Kp uu measured for Cc1nc([C@@H]2CCOC2)c2c(N3CCc4c(c(C5CC5)nn4C)C3)ncnn12 and print it.
1.7

Retrieve Kp uu measured for Cn1ncc(-c2ccc(C(=O)N(c3ncccc3Cl)[C@@H]3CCCNC3)cc2)c1C(=O)O and print it.
5.3

Retrieve Kp uu measured for COc1ccc2ncc(F)c([C@@H](O)CC[C@@H]3CCN(CCSc4cccs4)C[C@@H]3C(=O)O)c2c1 and print it.
0.75

Retrieve Kp uu measured for O=c1[nH]c(=S)n(CCO)c2cc[nH]c12 and print it.
1.1

Retrieve Kp uu measured for Cc1ccc(NC(=O)c2cc(Oc3ccc(S(C)(=O)=O)cc3)c3c(c2)OC(C)(C)C3)nc1 and print it.
0.43

Retrieve Kp uu measured for CN1CC[C@H](c2c(O)cc(O)c3c(=O)cc(-c4ccccc4Cl)oc23)[C@H](O)C1 [ALVOCIDIB] and print it.
1.7

Retrieve Kp uu measured for CCC[C@H](Oc1cc(C)c(-n2cc(C(F)(F)F)cn2)c(C)c1)c1ccc(C(=O)NCCC(=O)O)cc1 [PF-06291874] and print it.
0.91

Retrieve Kp uu measured for NC(=O)c1c(-c2ccc(Oc3ccc(Cl)cc3)cc2)nn([C@@H]2CCCN(C(=O)/C=C/CO)C2)c1N and print it.
2.7

Retrieve Kp uu measured for CC1(C)CN(CCC#N)C(=O)[C@@H]1Oc1ccc(C#N)c(C(F)(F)F)c1 and print it.
0.55

Retrieve Kp uu measured for C[C@H]1COCCN1c1nc(-c2cnc(N)nc2)c2c(n1)N([C@@]1(C)CCN(C(=O)C(C)(C)N)C1)CC2 and print it.
18

Retrieve Kp uu measured for Oc1noc2cc(Cl)c(Cl)cc12 and print it.
10

Retrieve Kp uu measured for CC(C)(CC1Cc2ccccc2C1)NC[C@@H](O)COc1cc(C2CC3CC2C2C(C(=O)O)C32)ccc1C#N (some centres undefined) and print it.
0.19

Retrieve Kp uu measured for C[C@H]1c2cccc(CCC(C)(C)O)c2C[C@H](CO)N1C(=O)Cc1c(Cl)cccc1Cl and print it.
2.3

Retrieve Kp uu measured for CC(=O)NS(=O)(=O)c1ccc(Oc2ccc(F)c(Cl)c2)c(C(F)(F)F)c1 and print it.
1.8

Retrieve Kp uu measured for CC(C)(O)CS(=O)(=O)c1ccc2c(c1)nc(C(C)(C)C)n2CC1CCOCC1 and print it.
1.1

Retrieve Kp uu measured for COc1cc2c(cc1Cc1ccccc1)C[C@H](N)C(=O)N2OC(=O)N(C)C and print it.
2.5

Retrieve Kp uu measured for COc1cc(/C=C2\CCCN([C@@H](C)c3ccc(F)cc3)C2=O)ccc1-n1cnc(C)c1 and print it.
0.77
